Biological target: N-terminal Xaa-Pro-Lys N-methyltransferase 1 (Homo sapiens) (UniProt Q9BV86)
Sequence (Q9BV86 whole entry, looked up): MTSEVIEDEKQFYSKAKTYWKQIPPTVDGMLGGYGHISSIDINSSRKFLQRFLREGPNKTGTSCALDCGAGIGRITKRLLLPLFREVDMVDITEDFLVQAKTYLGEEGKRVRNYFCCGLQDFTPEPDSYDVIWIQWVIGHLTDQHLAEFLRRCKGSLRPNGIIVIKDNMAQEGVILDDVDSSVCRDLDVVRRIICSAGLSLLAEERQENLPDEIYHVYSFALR
Experiment: Confirmatory qHTS for Inhibitors of N-terminal methyltransferase 1 (NTMT1): MTaseGlo Assay (AID 1645874); further: nearly all actives have a fitted effect of over 65% in size; further: potency means the concentration at half of the fitted maximal effect
Settings: NTMT1 enzyme, MTase-Glo SAH luminescence; series mostly up to 100 µM
Records with an inconclusive call do not appear. Activity calls are given as the source filed them. The call rests on the fitted dose curve; in most records, active means well fitted inhibition curve with a large enough effect; inconclusive means small, poorly fitted or top-dose-only effect; inactive means no such curve, though single readings can be large or run the other way.
assay_readout: Potency

// known answers, use as guide
[
  {
    "structure_smiles_string": "O=C(Nc1noc2ccccc12)c1c(F)cccc1F",
    "Potency": "inactive"
  },
  {
    "structure_smiles_string": "Cc1ccc(-n2ncc3c(NCCCN(C)C)ncnc32)cc1Cl",
    "Potency": "39.8 µM (active)"
  },
  {
    "structure_smiles_string": "COc1ccc(C(=O)CSc2nc(C)cc(C)c2C(=O)Nc2ccccc2C)cc1",
    "Potency": "inactive"
  },
  {
    "structure_smiles_string": "Cc1cccc(NC(=O)c2sc3nc(-c4cc5ccc(O)cc5oc4=O)[nH]c(=O)c3c2C)c1",
    "Potency": "6.02 µM (active)"
  },
  {
    "structure_smiles_string": "COc1cc2c(NC3CCN(C(C)C)CC3)nc(N3CCCCC3)nc2cc1OCCCN1CCCCC1",
    "Potency": "38.8 µM (active)"
  }
]

For every item below, please supply its Potency.
1. CNc1sc(-c2cccc3ccccc23)nc1C#N
2. COc1cc2c(NC3CCN(C(C)C)CC3)nc(N3CCCCCC3)nc2cc1OCCCN1CCCC1

*A*
1: inactive; 2: 30.8 µM (active)
